Assay: small molecules captured by biotinylated probe aFST – biochemical, small-molecule microarray, fluorescence 635/667, stem cell growth factor project, primary screen (AID 1086);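 note: score merges 667 nm fluorescence with signal-to-noise of each printed compound spot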
Conditions: higher = more signal
Each entry gets -1 if its composite z-score stays under 0.3, and 1 if its composite z-score is 0.3 or above.

Below are worked cases with known answers.
- O=C(NCC(O)CO)[C@@]1(Cc2ccccc2)COC(c2ccc(OCCCO)cc2)=N1 (stereo partly specified): -1
- CC1CC/C=C\[C@H]2OC34C=CCN(c5ccc6ccccc6c5)C(=O)[C@H]3N(CCCCCO)C(=O)[C@@H]4C2C(=O)O1 (stereo partly specified): -1
- O[C@@H](Cc1ccccc1)[C@@H](/C=C/c1ccccc1)NCc1ccccc1Br: -1
- C=CCN1C(=O)[C@]2(COC(c3ccc(OCCCO)cc3)=N2)Cc2ccccc21: -1
- O=C(CS)NCCCCCNC(=O)[C@H]1C[C@H]2C(=O)N[C@@H](Cc3ccccc3)C(=O)N2[C@H]1c1cccc(OCCO)c1: 1

Record CC(C)C(O)C1C=CC2C(=O)N(C)C(=O)C2N1N1CCCCC1 (stereo unspecified) ; criterion: composite z-score no lower than 0.3. Met? 1

Record C=C(/C(=C/C[C@@H](OC(=O)c1ccncc1)c1ccc(CO)o1)c1cc(C(=O)OC)ccc1OC)C(C)C ; criterion: composite z-score no lower than 0.3. Met? 1

Record C=C(C(=O)CC[C@@H](OC(=O)c1cccnc1)c1ccc(OCCO)cc1)C(C)C ; criterion: composite z-score no lower than 0.3. Met? -1

* * *

I'd appreciate it if you could supply composite z-score values for the items below.
System: XIP peptide (Xip251-270) binding
Experiment: XIP fragment 251-270 binding compounds – biochemical, small-molecule microarray, fluorescence 635/667 nm, 0.1 µg/mL protein, primary screen (AID 1182)
Settings: fluorescent protein binding, 635 nm, higher = more signal, called active from +8 up or from −8 down
One number for each entry.

Solved cases below.
- Cc1ccc(S[C@]2(C(=O)NCCCN(C)C)CC(=O)N(C(C)C)[C@@H]2c2ccc(CO)cc2I)cc1: 0.352
- C=CC[C@]1(C(=O)NCCN2CCOCC2)N=C(c2ccc(OCCCO)cc2)O[C@H]1c1ccccc1N=[N+]=[N-]: 3.25
- COCCOC(=O)N1C(=O)[C@@]2(c3cc(C#Cc4ccc(OC)cc4)ccc31)[C@H](c1ccc(O)cc1)N1[C@H](c3ccccc3)[C@H](c3ccccc3)OC(=O)[C@H]1[C@@H]2C(=O)N1CCN(c2ncccn2)CC1: 0.164
- C=CCC(OC(C)=O)[C@@H]1[C@@H](N(Cc2cc3ccccc3o2)C(=O)c2ccc(-c3ccccc3)cc2)c2cc(OCCCO)ccc2N1C(=O)Cc1ccc2ccccc2c1 (stereo partly drawn): -0.317

Hi team, please reply with composite z-score for each item in this list.
1. CCCNC(=O)[C@@]1(C)c2ccccc2C(=O)N(Cc2ccc(OC(F)(F)F)cc2)[C@H]1c1ccc(CO)cc1
2. COC(=O)c1c(CC[C@@H](CO)NC(=O)Nc2ncn[nH]2)oc(C(=O)Cc2ccccc2)c1C(=O)OC
3. C=CCC(OC(C)=O)[C@@H]1[C@@H](N(Cc2cc3ccccc3o2)C(=O)c2ccc(C)cc2)c2cc(OCCCO)ccc2N1C(=O)c1ccc(-c2ccccc2)cc1 (stereo partly drawn)

0.689
0.782
-0.28

Hi team, please reply with composite z-score for each item in this list.
1. O=C1O[C@@H](c2ccccc2)[C@@H](c2ccccc2)N2[C@@H](c3ccc(O)cc3)[C@]3(C(=O)Nc4ccccc43)[C@@H](C(=O)N3CCCCCCC3)[C@H]12
2. O=C1C2C=CC(C(O)c3ccc(Br)cc3)N(n3cnnc3)C2C(=O)N1Cc1ccccc1 (stereo not drawn)
3. COCCOC(=O)N1C(=O)[C@@]2(c3cc(C#Cc4ccc(OC)cc4)ccc31)[C@H](c1ccc(OCCO)cc1)N1[C@H](c3ccccc3)[C@H](c3ccccc3)OC(=O)[C@H]1[C@@H]2C(=O)N1CCc2cc(OC)c(OC)cc2C1
4. O=C1C[C@@](C(=O)O)(c2ccc([N+](=O)[O-])cc2)[C@@H](c2ccc(CO)cc2I)N1CC12CC3CC(CC(C3)C1)C2
5. C[N+](C)(C)CCCC[C@@H]1NC(=O)[C@@H]2C[C@H](C(=O)NCCCCCCNC(=O)CS)[C@H](c3cccc(OCCO)c3)N2C1=O
6. O=C1O[C@@H](c2ccccc2)[C@@H](c2ccccc2)N2[C@@H](c3ccc(O)cc3)[C@]3(C(=O)Nc4ccc(C#CCCO)cc43)[C@@H](C(=O)N3CCCCCCC3)[C@H]12

1: 3.19; 2: 0.568; 3: 0.179; 4: 0.862; 5: 0.339; 6: 0.868

src = PubChem BioAssay
